Cited source: ChEMBL document CHEMBL4483862

# System: Plasmodium berghei
# assay.info: Luciferase/luciferin-expressing antifolate-resistant parasites were used to infect a culture of HepG2 cells that were pre-incubated with compounds. Infected hepatocytes emit light due to the luciferase reaction. Assay results are presented as the percent inhibition of light emission compared to control. […]
# Assay type: functional
# cond: sporozoite, PBLUC_HILL_SLOPE 0.0792, 17.3, PBLUC_R_SQUARED 0.0344, 0.317, read-out: LUCIFERASE INFECTION ASSAY - IC50
measurement.kind: IC50 (µM)

INSERT INTO measurements (chemical_string, measurement_kind, assay_result) VALUES
  ('COc1ccc(N2CCN(CCCNS(=O)(=O)c3ccc(Cl)cc3C(F)(F)F)CC2)cc1', 'IC50', 9.67);
